test system: Plasmodium falciparum; assay: GSK_TCMDC: Inhibition of Plasmodium falciparum Dd2 in whole red blood cells, using parasite LDH activity as an index of growth. Test compounds present at 2uM; assay type: functional
PARAMETER: Inhibition (%)

>  <COMPOUND>
Br.CCC(ON1C(N)=NC(N)=NC1(C)C)c1ccc(Cl)cc1 (stereo not drawn)

>  <VALUE>
90

$$$$
>  <COMPOUND>
O=C(NNC(=O)c1ccc(CCN2CCC(c3nc(COCC(F)(F)F)c(-c4ccc(F)cc4)o3)CC2)cc1)Nc1ccc(Oc2ccccc2)cc1

>  <VALUE>
89

$$$$
>  <COMPOUND>
O=C(O)C(F)(F)F.OCC1CCN(Cc2cccc(-c3ccc(-c4nc5cc(C(F)(F)F)ccc5[nH]4)s3)c2)CC1

>  <VALUE>
90

$$$$
